pKi: −log10 of the molar value.
What follows is a record of pKi for UniProt P30291.

q: Form entry - test system: UniProt P30291; read-out: pKi; compound: CC(=O)Nc1ccc(Nc2ncc3c(=O)n(-c4ccccc4Cl)c4nccn4c3n2)cc1
a: 7.00 to 8.00

q: Form entry - test system: UniProt P30291; read-out: pKi; compound: O=C1CNCCN1c1ccc(Nc2ncc3c(=O)n(-c4c(Cl)cccc4Cl)c4nccn4c3n2)cc1
a: > 8.00

q: Form entry - test system: UniProt P30291; read-out: pKi; compound: O=c1c2cnc(Nc3ccc4cn[nH]c4c3)nc2n2ccnc2n1-c1c(Cl)cccc1Cl
a: > 8.00

====

What follows is a record of Ki for GST-tagged-Wee1 kinase (Homo sapiens).

compound: O=c1c2cnc(Nc3ccc(-n4cccn4)cc3)nc2n2ccnc2n1-c1ccccc1Cl [Example 89]
Ki: 10 to 100 nM

compound: O=c1c2cnc(Nc3ccc4c(c3)CCNC4)nc2n2ccnc2n1-c1c(Cl)cccc1Cl [Example 122]
Ki: < 10 nM

compound: CC1(C)CN(CC(F)F)Cc2cc(Nc3ncc4c(=O)n(-c5c(F)cccc5Cl)c5nccn5c4n3)ccc21 [Example 280]
Ki: 10 to 100 nM

compound: CN1Cc2cc(Nc3ncc4c(=O)n(-c5c(F)cccc5Cl)c5nccn5c4n3)ccc2C1(C)C [Example 209]
Ki: < 10 nM

compound: CC(C)n1c(=O)c2cnc(Nc3ccc(N4CCN(C)CC4)cc3)nc2n2ccnc12 [Example 346]
Ki: 10 to 100 nM

Please turn your attention to the following entry.
q: Form entry - test system: GST-tagged-Wee1 kinase (Homo sapiens); read-out: Ki; compound: CC1(C)CNCc2cc(Nc3ncc4c(=O)n(-c5c(F)cccc5Cl)c5nccn5c4n3)ccc21 [Example 159]
a: 10 to 100 nM

====

What follows is a record of Ki for GST-tagged-Wee1 kinase (Homo sapiens, UniProt P30291).

In the examples that follow, each entry is paired with its recorded Ki.
compound: NC(=O)C1CCCN(c2ccc(Nc3ncc4c(=O)n(-c5ccccc5Cl)c5nccn5c4n3)cc2)C1 (stereo not shown)
result: 10 to 100 nM
//
compound: CN1CCN(c2ccc(Nc3ncc4c(=O)n(-c5cccc(Cl)c5)c5nccn5c4n3)cc2)CC1
result: > 100 nM
//
compound: CC(C)[C@H]1CN(c2ccc(Nc3ncc4c(=O)n(-c5c(Cl)cccc5Cl)c5nccn5c4n3)cc2)CCN1
result: < 10 nM
//
compound: O=C(Nc1ccc(Nc2ncc3c(=O)n(-c4ccccc4Cl)c4nccn4c3n2)cc1)C1CCC(O)CC1 (stereo not shown)
result: 10 to 100 nM
//
compound: Cc1nnc2n(-c3ccccc3Cl)c(=O)c3cnc(Nc4ccc(N5CCN(C)CC5)cc4)nc3n12
result: 10 to 100 nM

q: Requested field: Ki. Item: O=c1c2cnc(Nc3ccc(N4CCN5CCCCC5C4)cc3)nc2n2ccnc2n1-c1ccccc1Cl (stereo not shown)
a: < 10 nM

q: Requested field: Ki. Item: COc1ccc(-n2c(=O)c3cnc(Nc4ccc(N5CCN(C)CC5)cc4)nc3n3ccnc23)c(OC)c1
a: > 100 nM

====

What follows is a record of pKi for GST-tagged-Wee1 kinase (Homo sapiens, UniProt P30291).
pKi: −log10 of the molar value.

In the examples that follow, each entry is paired with its recorded pKi.
compound: COC[C@H]1CCCN1c1ccc(Nc2ncc3c(=O)n(-c4ccccc4Cl)c4nccn4c3n2)cc1
pKi: > 8.00
//
compound: CC1(C)CN(CCF)Cc2cc(Nc3ncc4c(=O)n(-c5c(Cl)cccc5Cl)c5nccn5c4n3)ccc21
pKi: > 8.00
//
compound: CCN(CCN(C)C)c1ccc(Nc2ncc3c(=O)n(-c4ccccc4Cl)c4nccn4c3n2)cc1
pKi: > 8.00
//
compound: O=c1c2cnc(Nc3ccc(-c4cn[nH]c4)cc3)nc2n2ccnc2n1-c1ccccc1Cl
pKi: 7.00 to 8.00
//
compound: O=c1c2cnc(Nc3ccccc3)nc2n2ccnc2n1-c1cccc(O)c1
pKi: 7.00 to 8.00
//
compound: O=c1c2cnc(Nc3ccc(N4CC5(CCNC5)C4)cc3)nc2n2ccnc2n1-c1c(Cl)cccc1Cl
pKi: > 8.00

q: Requested field: pKi. Item: C[C@@H]1CN(c2ccc(Nc3ncc4c(=O)n(-c5c(Cl)cccc5Cl)c5nccn5c4n3)cc2F)C[C@H](C)N1
a: > 8.00

q: Requested field: pKi. Item: CN(C)C1Cc2ccc(Nc3ncc4c(=O)n(-c5c(F)cc(F)cc5Cl)c5nccn5c4n3)cc2C1 (stereo not drawn)
a: > 8.00

q: Requested field: pKi. Item: CC1(C)CN(C(=O)CO)Cc2cc(Nc3ncc4c(=O)n(-c5c(F)cccc5Cl)c5nccn5c4n3)ccc21
a: > 8.00

====

pKi: −log10 of the molar value.
What follows is a record of pKi for GST-tagged-Wee1 kinase (Homo sapiens, UniProt P30291).

molecule: CN1CCN(CCCOc2cccc(Nc3ncc4c(=O)n(-c5ccccc5Cl)c5nccn5c4n3)c2)CC1 [Example 82]
result: 7.00 to 8.00
--
molecule: O=c1c2cnc(Nc3ccc(N4CCSCC4)cc3)nc2n2ccnc2n1-c1ccccc1Cl [Example 270]
result: > 8.00
--
molecule: CN(C)C1Cc2ccc(Nc3ncc4c(=O)n(-c5ccccc5Cl)c5nccn5c4n3)cc2C1 (centres unmarked) [Example 94]
result: > 8.00
--
molecule: CN1Cc2cc(Nc3ncc4c(=O)n(-c5ccccc5Cl)c5nccn5c4n3)ccc2C(C)(C)C1 [Example 53]
result: > 8.00
--
molecule: O=c1c2cnc(Nc3ccc4c(c3)CC(NCCF)C4)nc2n2ccnc2n1-c1c(Cl)cccc1Cl (centres unmarked) [Example 296]
result: > 8.00
--
molecule: O=c1c2cnc(Nc3ccc4[nH]ncc4c3)nc2n2ccnc2n1-c1c(Cl)cccc1Cl [Example 194]
result: > 8.00

q: Form entry - test system: GST-tagged-Wee1 kinase (Homo sapiens, UniProt P30291); read-out: pKi; molecule: O=C(N[C@H]1CC[C@H](O)CC1)c1ccc(Nc2ncc3c(=O)n(-c4ccccc4Cl)c4nccn4c3n2)cc1 [Example 46]
Sequence (P30291 whole entry): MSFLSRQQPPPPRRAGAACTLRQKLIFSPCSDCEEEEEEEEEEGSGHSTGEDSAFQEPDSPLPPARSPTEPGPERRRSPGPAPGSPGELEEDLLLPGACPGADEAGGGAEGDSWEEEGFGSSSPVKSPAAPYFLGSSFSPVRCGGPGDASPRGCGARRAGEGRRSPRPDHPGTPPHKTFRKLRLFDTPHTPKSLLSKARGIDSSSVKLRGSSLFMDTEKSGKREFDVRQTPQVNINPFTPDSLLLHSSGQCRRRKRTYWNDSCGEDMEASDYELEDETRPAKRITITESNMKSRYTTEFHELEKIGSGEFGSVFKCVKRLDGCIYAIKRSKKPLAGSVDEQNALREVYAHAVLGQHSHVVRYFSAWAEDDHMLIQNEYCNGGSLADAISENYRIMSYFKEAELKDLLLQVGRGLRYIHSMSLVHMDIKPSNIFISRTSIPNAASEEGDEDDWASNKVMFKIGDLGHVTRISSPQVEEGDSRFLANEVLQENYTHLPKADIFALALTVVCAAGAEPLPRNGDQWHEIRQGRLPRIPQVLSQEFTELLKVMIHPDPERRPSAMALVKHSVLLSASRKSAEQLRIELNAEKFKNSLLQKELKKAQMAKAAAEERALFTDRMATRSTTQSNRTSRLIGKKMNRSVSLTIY
a: 7.00 to 8.00

q: Form entry - test system: GST-tagged-Wee1 kinase (Homo sapiens, UniProt P30291); read-out: pKi; molecule: O=c1c2cnc(Nc3ccc(N4CCC(N5CCCCC5)CC4)cc3)nc2n2ccnc2n1-c1c(Cl)cccc1Cl [Example 282]
a: > 8.00

====

What follows is a record of Ki for UniProt:P30291.

compound: Cc1cc(Nc2ncc3c(=O)n(-c4c(Cl)cccc4Cl)c4nccn4c3n2)ccc1N1CCCN(C)CC1 [Example 74]
assayedSystem: UniProt:P30291
result: < 10 nM
//
compound: CN(C)CCCN1CCN(c2ccc(Nc3ncc4c(=O)n(-c5ccccc5Cl)c5nccn5c4n3)cc2)CC1 [Example 250]
assayedSystem: UniProt:P30291
result: < 10 nM

q: Form entry - test system: UniProt:P30291; read-out: Ki; compound: CC(=O)N1Cc2cc(Nc3ncc4c(=O)n(-c5c(F)cccc5Cl)c5nccn5c4n3)ccc2C2(CC2)C1 [Example 241]
a: < 10 nM
